Reported Emax by item:
Target: Nociceptin receptor (Rattus norvegicus) (UniProt P35370)
Sequence (P35370 whole entry): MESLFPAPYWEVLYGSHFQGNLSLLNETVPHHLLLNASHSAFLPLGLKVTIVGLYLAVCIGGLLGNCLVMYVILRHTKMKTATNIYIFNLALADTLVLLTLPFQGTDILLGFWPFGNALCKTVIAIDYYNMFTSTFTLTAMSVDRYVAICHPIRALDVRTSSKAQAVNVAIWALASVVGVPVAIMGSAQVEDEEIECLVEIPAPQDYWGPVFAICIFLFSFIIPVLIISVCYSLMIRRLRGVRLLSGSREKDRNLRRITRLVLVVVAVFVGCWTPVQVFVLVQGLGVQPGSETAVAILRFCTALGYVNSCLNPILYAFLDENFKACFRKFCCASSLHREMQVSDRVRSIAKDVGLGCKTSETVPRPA
Assay: Activity against LFES-evoked contraction of Wistar rat vas deferens in presence of naloxone
Assay type: functional, tissue-based
Where a SMILES comes first, the peptide text is derived from it. [ ]: non-standard residue; d: D form. Dap = NC[C@H](N)C(=O)O
experimental.endpoint: Emax (%)

INSERT INTO results (molecule, experimental_endpoint, display_unit, measured_result) VALUES
  ('C[C@H](NC(=O)CNC(=O)[C@@H](NC(=O)[C@H](Cc1ccccc1)NC(=O)CNC(=O)CNC(=O)[C@@H](N)Cc1ccccc1)[C@@H](C)O)C(=O)N[C@@H](CCCN=C(N)N)C(=O)N[C@@H](CCCN)C(=O)N[C@@H](CO)C(=O)N[C@@H](C)C(=O)N[C@@H](CCCN=C(N)N)C(=O)N[C@@H](CCCCN)C(N)=O', 'Emax', '%', -77),
  ('C[C@H](NC(=O)CNC(=O)[C@@H](NC(=O)[C@H](Cc1ccccc1)NC(=O)CNC(=O)CNC(=O)[C@@H](N)Cc1ccccc1)[C@@H](C)O)C(=O)N[C@@H](CCCN=C(N)N)C(=O)N[C@@H](CCCN)C(=O)N[C@@H](CO)C(=O)N[C@@H](C)C(=O)N[C@@H](CCCN=C(N)N)C(=O)N[C@@H](CCCN)C(N)=O', 'Emax', '%', -70),
  ('C[C@H](NC(=O)CNC(=O)[C@@H](NC(=O)[C@H](Cc1ccccc1)NC(=O)CNC(=O)CNC(=O)[C@@H](N)Cc1ccccc1)[C@@H](C)O)C(=O)N[C@@H](CCCNC(=N)N)C(=O)N[C@@H](CCCCN)C(=O)N[C@@H](CO)C(=O)N[C@@H](C)C(=O)N[C@@H](CCCNC(=N)N)C(=O)N[C@@H](CCCCN)C(N)=O', 'Emax', '%', -49),
  ('C[C@H](NC(=O)CNC(=O)[C@@H](NC(=O)[C@H](Cc1ccccc1)NC(=O)CNC(=O)CNC(=O)[C@@H](N)Cc1ccccc1)[C@@H](C)O)C(=O)N[C@@H](CCCN=C(N)N)C(=O)N[C@@H](CN)C(=O)N[C@@H](CO)C(=O)N[C@@H](C)C(=O)N[C@@H](CCCN=C(N)N)C(=O)N[C@@H](CN)C(N)=O (H-FGGFTGAR[Dap]SAR[Dap]-NH2)', 'Emax', '%', -46);
